test system: 786-0 renal; assay: NCI tumour cell line growth inhibition, 48 h
observed-property: TGI (µM)
Give the number; µM is assumed, so skip it.

>>> endpoint_value("C=C1CC(C)(COc2ccc3c(C)cc(=O)oc3c2)OC1=O (stereo not drawn)")
5.65

# next compound below
Prompt: Recall the recorded TGI for COCCOC1=C(Cl)C(=O)c2c(O)ccc(O)c2C1=O with 786-0 renal and state it.
Response: 3.23

====

test system: DLD-1 colon; assay: NCI tumour cell line growth inhibition, 48 h
observed-property: TGI

>>> endpoint_value("O=C(O)COc1ccc(C(=O)/C(SS/C(C(=O)c2ccc(OCC(=O)O)c(Cl)c2Cl)=C2\\C=C(c3ccccc3Cl)SS2)=C2/C=C(c3ccccc3Cl)SS2)c(Cl)c1Cl")
"> 65.4 µM"

Prompt: Record request: TGI value, item CCCCC(C(=O)CCC(=O)Nc1ccc(Cl)cc1)C(=O)C(C)C (stereo not given)
Response: > 100 µM

Prompt: Record request: TGI value, item Cc1c2cc[n+](C)cc2c(C)c2c1oc1ccccc12
Response: > 59.5 µM

Prompt: Record request: TGI value, item N#Cc1cn(-c2c3ccccc3nc3ccccc23)c(=O)[nH]c1=O
Response: > 100 µM

Prompt: Record request: TGI value, item COC(CC1(OC)OC(=O)C=C1N)OC (stereo not given)
Response: > 100 µM

====

tested on: NCI-H23 lung; assay: NCI tumour cell line growth inhibition, 48 h
observed-property: TGI

>>> endpoint_value("Cc1cc(C#Cc2ccccc2)ccc1-n1c(/C=C/c2cc(O)ccc2O)nc2ccccc2c1=O")
"3.12 µM"
>>> endpoint_value("COc1cc(/C=C/c2ccccn2)cc(OC)c1OC")
"> 10 µM"
>>> endpoint_value("O=C(/C=C/c1ccc(O)cc1)c1cc(Cl)ccc1O")
"> 100 µM"
>>> endpoint_value("CCCCCCCCCCCC(=O)OC(COC(N)=O)COc1ccc(Cl)cc1 (configuration not stated)")
"46 µM"
>>> endpoint_value("COC(CC1(OC)OC(=O)C=C1N)OC (configuration not stated)")
"> 100 µM"

Prompt: Record request: TGI value, item CCSc1nc(-c2cccs2)nc2ccc(I)cc12
Response: > 100 µM

Prompt: Record request: TGI value, item O=C(NC(Cc1ccc(I)cc1)C(=O)O)c1ccc(Cl)cc1 (configuration not stated)
Response: > 100 µM

Prompt: Record request: TGI value, item CCOC(=O)c1c2ccc(/C=C/c3ccccc3)ccc-2c(C(=O)OCC)c1N
Response: > 100 µM

Prompt: Record request: TGI value, item CCn1c(O)c(C=Nc2ccccc2)s/c1=N/Nc1nc(-c2ccc(O)c(O)c2)cs1
Response: > 100 µM

Prompt: Record request: TGI value, item Nc1ccc(C(=O)Nc2ccccc2N)cc1
Response: > 100 µM

Prompt: Record request: TGI value, item COc1cc([N+](=O)[O-])ccc1NC(=O)c1cccc([N+](=O)[O-])c1O
Response: 96.9 µM

Prompt: Record request: TGI value, item CCCCc1ccc(Nc2nc(Cl)c3ncn(C4CC(Oc5ccc(C)cc5)C(COc5ccc(C)cc5)O4)c3n2)cc1 (configuration not stated)
Response: > 100 µM

====

tested on: COLO 205 colon; experiment: NCI tumour cell line growth inhibition, 48 h
Catalogue of molecules with associated TGI
Give the number; µM is assumed, so skip it.

Field: example entries. Status: answers known.
>>> endpoint_value("CC(=O)Oc1ccc(/C=C/C(=O)OCCOC(=O)/C=C/c2ccc(OC(C)=O)c(OC(C)=O)c2)cc1OC(C)=O")
28.2
>>> endpoint_value("Cc1ccc(S(=O)(=O)CC2(Br)CCc3ccccc3C2=O)cc1 (stereo unspecified)")
43.6
>>> endpoint_value("CC1(C)OC(=O)C(=Cc2ccc([N+](=O)[O-])s2)C(=O)O1")
31
>>> endpoint_value("Cc1cccc(C)c1N1C(=O)C2c3[nH]c4ccccc4c3C3CCC(C(C)(C)C)CC3C2C1=O (stereo unspecified)")
24
>>> endpoint_value("Oc1ccc(-c2nc3cc(F)ccc3s2)cc1")
33.9

Prompt: Recall the recorded TGI for CC(C)[C@H](C(=O)O[C@@H]1/C=C/C(=O)O[C@@H](C)CCC/C=C/[C@@H]2C[C@H](O)C[C@H]21)N(C)C with COLO 205 colon and state it.
Response: 9.67

Prompt: Recall the recorded TGI for Cc1cc(N)cc(C)c1-c1c(Br)cc(N)cc1Br with COLO 205 colon and state it.
Response: 4.88

====

Catalogue of compounds with associated TGI
tested on: MALME-3M melanoma; assay: NCI tumour cell line growth inhibition, 48 h

Field: example entries. Status: answers known.
>>> endpoint_value("c1c2c(cc3c1OCO3)-c1cc3ccc4c(c3c[n+]1CC2)OCO4")
"3.04 µM"
>>> endpoint_value("CSc1nc2nc(C(O)C(O)C(O)CO)cnc2c(=O)[nH]1 (configuration not stated)")
"> 100 µM"

Prompt: Record request: TGI value, item C#Cc1ccc(-n2c(/C=C/c3ccc4ccccc4c3)nc3ncccc3c2=O)cc1
Response: > 100 µM

Prompt: Record request: TGI value, item O=C1/C(=C/c2ccccc2[N+](=O)[O-])COc2ccc(O)c(O)c21
Response: 3 µM

Prompt: Record request: TGI value, item CC1CC(Br)C(=O)O1 (configuration not stated)
Response: > 100 µM

Prompt: Record request: TGI value, item Cc1cc2c(cc1Cl)N1C(=O)NS(=O)(=O)N=C1NS2(=O)=O
Response: > 100 µM

Prompt: Record request: TGI value, item Clc1ccc(-c2nc3ccc4ccccc4c3c3c2CCCC3)cc1
Response: > 100 µM

Prompt: Record request: TGI value, item COCCOC1=C(Cl)C(=O)c2c(O)ccc(O)c2C1=O
Response: 2.17 µM

Prompt: Record request: TGI value, item CC(=O)Oc1ccc(/C=C/C(=O)OCCOC(=O)/C=C/c2ccc(OC(C)=O)c(OC(C)=O)c2)cc1OC(C)=O
Response: 30.1 µM

Prompt: Record request: TGI value, item CC1CC(c2ccc(Cl)c(Cl)c2)=Nc2ccccc2S1 (configuration not stated)
Response: > 100 µM

Prompt: Record request: TGI value, item O=C(Nc1ccccc1)Nc1ccc(Cl)c(Cl)c1
Response: 21.4 µM

Prompt: Record request: TGI value, item CCc1ccc2c(c1)C(=O)c1c-2n(CCCN)c(=O)c2cc([N+](=O)[O-])ccc12
Response: 2.8 µM

Prompt: Record request: TGI value, item CCN(CCO)CCCOc1ccc2c(Nc3cc(CC(=O)Nc4cccc(F)c4)[nH]n3)ncnc2c1
Response: 26.8 µM

Prompt: Record request: TGI value, item COC(=O)NC(=O)c1cn(C2CCCCC2)c(=O)[nH]c1=O
Response: > 100 µM

Prompt: Record request: TGI value, item O=C(NC(Cc1ccc(I)cc1)C(=O)O)c1ccc(Cl)cc1 (configuration not stated)
Response: > 100 µM

Prompt: Record request: TGI value, item COc1cc(NC(C)CCCN2C(=O)c3ccccc3C2=O)c2ncccc2c1OC (configuration not stated)
Response: 58.3 µM

Prompt: Record request: TGI value, item COc1ccc(/C=C2\N=C(c3ccccc3)OC2=O)cc1OC(C)=O
Response: 68.6 µM

Prompt: Record request: TGI value, item CNCCN(C)Cc1cn[nH]c1-c1ccc(OC2CC(OCCC3CCOCC3)C2)cc1 (configuration not stated)
Response: > 100 µM

====

Catalogue of compounds with associated TGI
test system: MOLT-4 leukemia; assay: NCI tumour cell line growth inhibition, 48 h

Prompt: Record request: TGI value, item COc1ccc(/C=C2\CCc3cc(OC)c(OC)cc3C2=O)cc1
Response: > 10 µM

Prompt: Record request: TGI value, item CCCCCCCCCCCC(=O)OC(COC(N)=O)COc1ccc(Cl)cc1 (stereo not given)
Response: 44.3 µM

Prompt: Record request: TGI value, item Cc1cc2cc3ccccc3cc2c(=O)[nH]1
Response: > 10 µM

Prompt: Record request: TGI value, item CCc1ccc([O-])c(C=NCCCN(C)CCCN=Cc2cc(C)ccc2[O-])c1.[Co+3].[N-]=[N+]=[N-]
Response: > 150 µg/mL

Prompt: Record request: TGI value, item N[C@@H](CSSC[C@H](N)C(=O)N1CCn2cc(-c3ccccc3)nc2[C@@H]1CC1CCCCC1)C(=O)N1CCn2cc(-c3ccccc3)nc2[C@@H]1CC1CCCCC1
Response: > 21.4 µM

Prompt: Record request: TGI value, item CC1OC(OCC2OC(Oc3ccc(C4CC(=O)c5c(O)cc(O)cc5O4)cc3O)C(O)C(O)C2O)C(O)C(O)C1O (stereo not given)
Response: > 100 µM

====

Catalogue of compounds with associated GI50
system: HOP-62 NSCLC; test: NCI tumour cell line growth inhibition, 48 h

>>> endpoint_value("N=C1C(c2nc3ccccc3s2)=C(O)CN1c1cc(Cl)cc(Cl)c1")
"46.7 µM"

Prompt: Record request: GI50 value, item COc1cc(-c2nn(-c3cccc(NC(=O)CCN4CCN(C)CC4)c3)cc2-c2ccncc2)ccc1Cl
Response: 1.36 µM

Prompt: Record request: GI50 value, item N=C1/C(=C2\Nc3ccccc3S2)CC(=O)N1c1ccc(SC(F)F)cc1
Response: 1.49 µM

Prompt: Record request: GI50 value, item CNCCNc1nc2ccccc2c2c(=O)c3cccc(C)c3sc12
Response: 1.36 µM
